Values compiled from patent US6573263B2.

Biological target: UniProt:P14099
Sequence (P14099 1-921): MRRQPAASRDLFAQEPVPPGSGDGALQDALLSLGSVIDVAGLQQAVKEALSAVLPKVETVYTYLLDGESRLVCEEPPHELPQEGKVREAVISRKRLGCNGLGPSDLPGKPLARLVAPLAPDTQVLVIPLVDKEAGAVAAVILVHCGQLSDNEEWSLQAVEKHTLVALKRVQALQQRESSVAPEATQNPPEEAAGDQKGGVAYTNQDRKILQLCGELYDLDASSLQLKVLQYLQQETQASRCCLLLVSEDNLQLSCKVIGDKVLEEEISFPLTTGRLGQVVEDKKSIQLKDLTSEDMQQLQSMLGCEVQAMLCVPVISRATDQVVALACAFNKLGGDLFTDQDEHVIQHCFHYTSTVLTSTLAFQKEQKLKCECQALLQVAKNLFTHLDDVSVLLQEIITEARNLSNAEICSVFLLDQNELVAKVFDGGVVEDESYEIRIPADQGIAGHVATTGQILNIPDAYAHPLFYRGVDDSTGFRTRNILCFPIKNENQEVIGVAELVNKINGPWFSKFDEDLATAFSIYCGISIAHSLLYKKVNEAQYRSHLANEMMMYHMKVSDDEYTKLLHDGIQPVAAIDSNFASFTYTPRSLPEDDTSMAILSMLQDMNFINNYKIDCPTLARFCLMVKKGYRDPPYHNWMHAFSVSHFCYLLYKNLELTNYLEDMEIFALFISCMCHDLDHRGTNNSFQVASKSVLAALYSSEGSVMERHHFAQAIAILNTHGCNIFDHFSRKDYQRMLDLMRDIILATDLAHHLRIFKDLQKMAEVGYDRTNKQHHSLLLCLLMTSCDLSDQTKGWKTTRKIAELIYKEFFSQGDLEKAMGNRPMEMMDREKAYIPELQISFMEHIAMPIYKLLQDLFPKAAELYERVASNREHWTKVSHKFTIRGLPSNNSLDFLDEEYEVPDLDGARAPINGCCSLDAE
Assay: Measurement of the PDE inhibition (PDE 2, [3H]-cAMP substrate, cGMP prestimulation)
Conditions: cGMP-stimulated PDE 2
measurement.type: pIC50
A value of pIC50 is the negative decimal logarithm of a concentration given in moles per litre.

Can you look up the measured pIC50 of COc1ccc(Cc2nn3c(C(CCCc4ccccc4)C(C)=O)nc(C)c3c(=O)[nH]2)cc1 (stereo not shown) for me?
8.00
